- Experimental target: EDNRB (Homo sapiens, UniProt P24530)
- Construct: purchased Promega (in-house HiBiT-GPCR construct library, NanoBRET)
- Sequence (P24530 27-442): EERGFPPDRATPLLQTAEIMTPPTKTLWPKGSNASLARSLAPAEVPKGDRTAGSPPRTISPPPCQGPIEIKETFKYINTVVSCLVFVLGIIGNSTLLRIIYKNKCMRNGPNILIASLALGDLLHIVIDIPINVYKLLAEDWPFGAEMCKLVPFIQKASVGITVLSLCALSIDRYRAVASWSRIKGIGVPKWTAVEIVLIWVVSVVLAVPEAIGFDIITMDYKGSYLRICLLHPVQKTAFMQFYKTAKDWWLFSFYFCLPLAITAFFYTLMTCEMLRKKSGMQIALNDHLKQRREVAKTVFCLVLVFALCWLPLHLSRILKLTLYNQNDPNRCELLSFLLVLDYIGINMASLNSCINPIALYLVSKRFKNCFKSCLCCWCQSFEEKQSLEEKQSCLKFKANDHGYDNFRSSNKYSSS
- Assay protocol: NanoBRET screen HiBiT-EDNRB in HEK293
- Format: binding
- Condition summary: EDNRB; tracer 0.1μM
- Method: Each tracer candidate was screened across the entire library of HiBiT-GPCR constructs using NanoBRET as the detection modality. As depicted in Figure 4A, the specificity of interactions was evaluated through decrease in BRET due to competitive displacement of a bound tracer by excess parental compound. Each tracer was analyzed for binding to each HiBiT-GPCR fusion in the absence and in the presence of competing parental compound. […]
Each entry below carries its recorded NanoBRET Fold Response.
Just the number, please, no unit attached.

Example cases with answers are listed next.
- Molecule: "COc1ccccc1N1CCN(CCCCN2C(=O)c3ccc(CNC(=O)CCOCCNC(=O)c4ccc(CNC(=O)CCc5ccc6n5[B-](F)(F)[N+]5=C(c7ccc[nH]7)C=CC5=C6)cc4)cc3C2=O)CC1"
  NanoBRET Fold Response: 0.95
- Molecule: "O=C(CCc1ccc2n1[B-](F)(F)[N+]1=C(c3ccc[nH]3)C=CC1=C2)NCCOCCOCCNC(=O)OCCOCCN1CCN(C2=Nc3ccccc3Sc3ccccc32)CC1"
  NanoBRET Fold Response: 0.97
- Molecule: "CCCn1c(=O)c2[nH]c(-c3ccc(OCC(=O)NCCNC(=O)CCOCCNC(=O)c4ccc(CNC(=O)CCc5ccc6n5[B-](F)(F)[N+]5=C(c7ccc[nH]7)C=CC5=C6)cc4)cc3)nc2n(CCC)c1=O"
  NanoBRET Fold Response: 0.92
- Molecule: "O=C(CCc1ccc2n1[B-](F)(F)[N+]1=C(c3ccc[nH]3)C=CC1=C2)NCc1ccc(C(=O)NCCOCCC(=O)N[C@@H]2CC[C@@]3(O)[C@H]4Cc5ccc(O)c6c5[C@@]3(CCN4CC3CC3)[C@H]2O6)cc1 [Naltrexone-3-NB590]"
  NanoBRET Fold Response: 0.94
- Molecule: "Cc1nc2n(c(=O)c1CCN1CCC(c3noc4cc(F)ccc34)CC1)CCCC2OC(=O)NCCOCCOCCOCCOCCNC(=O)CCc1ccc2n1[B-](F)(F)[N+]1=C(c3ccc[nH]3)C=CC1=C2 (centres unmarked)"
  NanoBRET Fold Response: 1.02
- Molecule: "Cc1cc2c(s1)Nc1ccccc1N=C2N1CCN(CCCNC(=O)CCOCCOCCOCCOCCNC(=O)CCc2ccc3n2[B-](F)(F)[N+]2=C(c4ccc[nH]4)C=CC2=C3)CC1"
  NanoBRET Fold Response: 1.00
- Molecule: "COc1ccccc1N1CCN(CCCCN2C(=O)c3ccc(CNC(=O)CCOCCOCCOCCOCCNC(=O)CCc4ccc5n4[B-](F)(F)[N+]4=C(c6ccc[nH]6)C=CC4=C5)cc3C2=O)CC1"
  NanoBRET Fold Response: 1.05

Next, consider the following molecule.
// Input: N#CN=C(NCCCOc1cccc(CN2CCCCC2)c1)NCCNC(=O)CCOCCOCCOCCOCCNC(=O)CCc1ccc2n1[B-](F)(F)[N+]1=C(c3ccc[nH]3)C=CC1=C2 . Output its NanoBRET Fold Response only.
1.03

Values compiled from paper PMC8151276.
